Numbers sourced from patent US20090270398A1.

Molecular target: CFTR (Homo sapiens)
Construct: results in the phosphorylation and opening of CFTR anion channels
Sequence (P13569 whole entry): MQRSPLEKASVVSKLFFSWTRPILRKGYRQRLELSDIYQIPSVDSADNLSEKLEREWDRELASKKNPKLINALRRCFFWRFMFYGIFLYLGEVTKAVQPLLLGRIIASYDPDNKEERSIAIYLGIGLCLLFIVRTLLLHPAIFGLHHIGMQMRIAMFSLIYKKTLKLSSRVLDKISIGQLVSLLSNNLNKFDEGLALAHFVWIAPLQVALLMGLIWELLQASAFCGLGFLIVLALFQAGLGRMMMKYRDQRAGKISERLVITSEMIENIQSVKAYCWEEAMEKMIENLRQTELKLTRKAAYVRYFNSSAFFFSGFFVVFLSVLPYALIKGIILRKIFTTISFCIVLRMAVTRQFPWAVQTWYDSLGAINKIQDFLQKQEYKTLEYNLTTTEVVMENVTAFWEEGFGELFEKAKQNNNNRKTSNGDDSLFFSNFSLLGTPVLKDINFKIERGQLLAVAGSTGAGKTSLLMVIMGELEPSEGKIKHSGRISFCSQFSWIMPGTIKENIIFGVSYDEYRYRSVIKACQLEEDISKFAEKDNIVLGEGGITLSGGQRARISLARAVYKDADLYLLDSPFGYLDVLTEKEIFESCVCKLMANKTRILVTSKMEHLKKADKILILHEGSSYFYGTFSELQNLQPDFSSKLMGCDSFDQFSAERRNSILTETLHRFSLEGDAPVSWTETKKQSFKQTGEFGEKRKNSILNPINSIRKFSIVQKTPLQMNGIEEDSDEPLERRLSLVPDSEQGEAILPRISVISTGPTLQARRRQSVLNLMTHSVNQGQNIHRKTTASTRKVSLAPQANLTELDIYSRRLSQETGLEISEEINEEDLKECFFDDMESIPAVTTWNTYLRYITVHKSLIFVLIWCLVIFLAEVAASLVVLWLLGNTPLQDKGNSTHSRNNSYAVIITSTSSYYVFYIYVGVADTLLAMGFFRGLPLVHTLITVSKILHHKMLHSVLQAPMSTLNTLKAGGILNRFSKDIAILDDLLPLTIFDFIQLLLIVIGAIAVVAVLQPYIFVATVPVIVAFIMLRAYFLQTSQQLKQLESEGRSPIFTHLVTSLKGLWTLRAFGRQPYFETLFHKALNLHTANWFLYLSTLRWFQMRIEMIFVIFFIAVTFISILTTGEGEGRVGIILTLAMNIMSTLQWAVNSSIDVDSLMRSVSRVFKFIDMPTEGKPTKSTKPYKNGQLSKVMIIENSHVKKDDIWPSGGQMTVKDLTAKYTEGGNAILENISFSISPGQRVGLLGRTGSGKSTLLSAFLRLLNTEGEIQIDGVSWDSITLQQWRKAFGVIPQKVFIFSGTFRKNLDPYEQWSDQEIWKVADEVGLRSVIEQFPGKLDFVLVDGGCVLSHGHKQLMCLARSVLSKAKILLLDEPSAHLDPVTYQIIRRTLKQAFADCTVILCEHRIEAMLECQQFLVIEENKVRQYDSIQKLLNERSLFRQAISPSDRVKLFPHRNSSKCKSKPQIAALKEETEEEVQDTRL
Experiment: T84 assay (FLIPR membrane potential, forskolin/IBMX-stimulated CFTR channel activity)
Settings: average of at least 2 runs unless annotated n = 1
value-kind: IC50

- Oc1c(Cl)cc(-c2ccc(OCc3ccc(F)cc3Cl)nn2)cc1Cl [Compound 96]: 3740 nM
- Oc1c(Cl)cc(-c2ccc(OCCc3cccc(Cl)c3)nn2)cc1Cl [Compound 104]: 10400 nM
- CN(Cc1ccc(F)c(F)c1)c1ccc(-c2cc(Cl)c(O)c(Cl)c2)nn1 [Compound 121]: 230 nM
- Oc1c(Br)cc(-c2ccc(OCc3ccc(F)cc3Cl)nn2)cc1Br [Compound 89]: 6010 nM
- CCOc1ccc(CN(CC)c2ccc(-c3cc(Cl)c(O)c(Cl)c3)nn2)cc1OC [Compound 129]: 1160 nM
- OCCN(Cc1ccc(F)cc1)c1ccc(-c2cc(Cl)c(O)c(Cl)c2)nn1 [Compound 111]: 370 nM
- Oc1c(Cl)cc(-c2ccc(OCc3cnc(Br)s3)nn2)cc1Cl [Compound 105]: 20800 nM
- OCCN(Cc1ccccc1)c1ccc(-c2cc(Cl)c(O)c(Cl)c2)nn1 [Compound 98]: 630 nM
- CN(Cc1cccc(Oc2ccccn2)c1)c1ccc(-c2cc(Cl)c(O)c(Cl)c2)nn1 [Compound 120]: 1710 nM
- CCN(Cc1cccc(F)c1)c1ccc(-c2cc(Cl)c(O)c(Cl)c2)nn1 [Compound 127]: 30 nM
- CCN(Cc1ccc(OCc2ccccc2)cc1)c1ccc(-c2cc(Cl)c(O)c(Cl)c2)nn1 [Compound 128]: 370 nM
- Oc1c(Cl)cc(-c2ccc(OCc3ccsc3)nn2)cc1Cl [Compound 106]: 19500 nM
- Oc1c(Br)cc(-c2ccc(OCc3cccc4ccccc34)nn2)cc1Br [Compound 95]: 7900 nM
- Oc1c(Cl)cc(-c2ccc(OCCc3cccs3)nn2)cc1Cl [Compound 102]: 6840 nM
